# study system: cAMP-dependent protein kinase catalytic subunit alpha (Homo sapiens)
# experimental conditions: at 10 µM
For each record, write down the corresponding residual activity.
# number only, unit % dropped from output

So what's the measured residual activity for this one? O=C(CCCc1ccc(-c2ccccc2F)cc1)Nc1ccc(O)cc1 128

# input compound: NCCNc1ncc(C(N)=O)c(Nc2cccc(C(F)(F)F)c2)n1 ; wanted: its residual activity 141

Returns the measured residual activity for the input compound. Input: COc1cc2c(cc1OC)-c1n[nH]c(Nc3cccc(F)c3)c1C2 98

Give its residual activity value. Item: COc1ccc2c(c1)c(C1=C(c3c[nH]c4ccccc34)C(=O)NC1=O)cn2CCCN(C)C 17

I'd like to know its residual activity. The compound in question is CC(C)c1nn(-c2c(Cl)cccc2Cl)c2nc(Cc3ccc(OCCO)cc3)[nH]c(=O)c12 89

residual activity lookup needed for O=C(Nc1nc2ccccc2n1CCN1CCOCC1)c1cccc([N+](=O)[O-])c1 , thanks. 80

Sample Nc1ncnc2c1c(-c1ccc(Oc3ccccc3)cc1)cn2C1CCCC1 — what was its residual activity? 88

Which residual activity value belongs to O=C(O)/C=C/c1cc(Br)c(Br)c(Br)c1Br ? 71

Using the record for O=S(=O)(NCCNC/C=C/c1ccc(Br)cc1)c1cccc2cnccc12 , report its residual activity. 6

Which residual activity value is on record for O=C1NC(=O)C(c2c[nH]c3ccccc23)=C1c1c[nH]c2ccccc12 ? 55

So what's the measured residual activity for this one? Fc1ccc(-c2nc3n(c2-c2ccncc2)CCS3)cc1 84

Form field: reported residual activity of O=C(c1ccccc1)c1ccc(N2CCOCC2)cc1O 81

Dear colleague, I am looking for the recorded residual activity of the following compound: O=C1C(Cl)=C(N2C(=O)CCC2=O)C(=O)c2ccccc21 84

So what's the measured residual activity for this one? O=S(=O)(c1cccc2cnccc12)N1CCCNCC1 17

Quick one: residual activity of COc1cc2ncnc(Nc3cccc(Cl)c3)c2cc1OC ? 101

Look up residual activity: O=C1NC(=O)c2c1c1c3ccccc3[nH]c1n1cncc21 88

Query: residual activity; subject: COc1cc2nccc(Oc3ccc(NC(=O)Nc4cc(C)on4)c(Cl)c3)c2cc1OC 98
